What MBNL1 % splicing rescue at 10 μM was measured for each of the following?
tested on: MBNL1 exon 5 inclusion in DM1 myotubes; assay: Myotube splicing rescue assay (MBNL1 exon 5 inclusion); format: cell-based, human; conditions: 10 μM, 48-hour incubation
Numbers only, in %.

query: What does the record list as MBNL1 % splicing rescue at 10 μM for "CCOc1cc(-c2nc3cc(OCCCN(C)C)ccc3[nH]2)c(OCC)cc1-c1nc2cc(OCCCN(C)C)ccc2[nH]1" ?
result: 22.5

query: What does the record list as MBNL1 % splicing rescue at 10 μM for "CN(C)CCCOc1ccc2nc(-c3ccc(-c4nc5ccc(C(=O)NCCNC(=N)N)cc5[nH]4)cc3)[nH]c2c1" ?
result: −23.5

query: What does the record list as MBNL1 % splicing rescue at 10 μM for "CN(C)CCSc1ccc2nc(-c3ccc(-c4nc5ccc(SCCN(C)C)cc5[nH]4)cc3)[nH]c2c1" ?
result: −17.6

Here is the next item to consider.
query: What does the record list as MBNL1 % splicing rescue at 10 μM for "CN(C)CCNC(=O)c1ccc2nc(-c3ccc(-c4nc5ccc(NC6=NCCN6C6=NCCN6)cc5[nH]4)cc3)[nH]c2c1" ?
result: 1.7
